Tested on: HEK-293T
method.notes: Multiplex assay against HEK293T
Assay type: toxicity, cell-based
experimental.conditions: human, 48 h, 10 µM, compound concentration 10 uM, replicate 2
I'd be grateful if you could share measured Population Mitochondria Different-Phenotype (%) for these entries.
Numbers only, in %.

Some entries whose results are on file:
Query: Population Mitochondria Different-Phenotype (%); subject: Cc1onc(-c2ccccc2Cl)c1C(=O)N(C)c1ccc(Cl)cc1
25

Query: Population Mitochondria Different-Phenotype (%); subject: Cc1cnc(-c2cc(N3CCN(C(=O)CCS(C)(=O)=O)CC3)ncc2Cl)c(C)c1
32

Query: Population Mitochondria Different-Phenotype (%); subject: Cc1cccc(NC(=O)CN2CCC(c3ccccn3)CC2)c1.Cl.Cl
37

Proceeding to the next compound to report its Population Mitochondria Different-Phenotype (%).
Query: Population Mitochondria Different-Phenotype (%); subject: CC(=O)Nc1cccc2c1c(Sc1ccc(Cl)cc1)c(C)n2CC(=O)O [AZD1981]
26
